test: UV absorption of the compounds (E1/1 at λmax); format: physicochemical
reported-endpoint: λmax (nm)
Output spec: scalar in nm, unitless text.

1) COc1cc2c(cc1OC)C(C)(C)C/C2=C(/C#N)C(=O)C(C)(C)C ... 373

Return value of λmax for input COc1c(C)cc2c(c1C)C(C)(C)C/C2=C(/C#N)C(=O)C(C)(C)C , no commentary.
340

Return value of λmax for input Cc1cc2c(cc1C)C(C)(C)C/C2=C(/C#N)C(=O)C(C)(C)C , no commentary.
342
